Test: Click kinetics, stopped-flow measurement of tetrazine ligation with equatorial TCO-PEG4
Conditions: PBS (10mM), 37 °C, TCO 1 mM, tetrazine 100 µM, absorbance at 535 nm
MEASURED METRIC: second order rate constant (M⁻¹ s⁻¹)

STRUCTURE	MEASURED RESULT
Cc1ccc([N+](C)(C)Cc2nnc(-c3ccccc3)nn2)cc1.[Br-]	620
C[N+](C)(Cc1nnc(-c2ccccc2)nn1)c1ccccc1.[Br-]	650
COc1cccc(-c2nnc(C[N+](C)(C)c3ccccc3)nn2)c1.[Br-]	790
C[N+](C)(Cc1nnc(-c2ccccc2)nn1)c1ccc(O)cc1.[Br-]	620
COc1ccc(-c2nnc(C[N+](C)(C)c3ccccc3)nn2)cc1.[Br-]	370
COc1ccc([N+](C)(C)Cc2nnc(-c3ccccc3)nn2)cc1.[Br-]	670
Cc1ccc(-c2nnc(C[N+](C)(C)c3ccccc3)nn2)cc1.[Br-]	480
C[N+](C)(Cc1nnc(-c2ccc(F)cc2)nn1)c1ccccc1.[Br-]	580
COc1ccc(-c2nnc(C[N+](C)(C)c3ccc(OC)cc3)nn2)cc1.[Br-]	340

Data provenance: patent EP4603107A1
